Tested on: Pseudomonas aeruginosa
experiment: Antimicrobial activity against tobramycin resistant Pseudomonas aeruginosa isolates by broth microdilution method
Type: functional
measurement-name: MIC50 (µg/mL)

>>> print(df.to_string())
                                   compound  result_unit  val
0  C[C@H]1COc2c(N3CCN(C)CC3)c(F)cc3c(=O)c(C(=O)O)cn1c23.C[C@H]1COc2c(N3CCN(C)CC3)c(F)cc3c(=O)c(C(=O)O)cn1c23.O        µg/mL   32
1  O=C(O)c1cn(C2CC2)c2cc(N3CCNCC3)c(F)cc2c1=O        µg/mL   32
2  C[C@@H](O)[C@H]1C(=O)N2C(C(=O)O)=C(S[C@@H]3CN[C@H](C(=O)N(C)C)C3)[C@H](C)[C@H]12        µg/mL   16
